Please provide measured protein stability index for the entries that follow.
B1: OAS1 (parent)
chain: YIGTHEYPHFSHRPSTLQAASTPQ

# Variants of: B1
# ASSAY_NAME: protein stability index of a GFP-peptide fusion (GPS, HEK-293T) (PSI 1-6); higher = more stable;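 further: lentivirally expressed fusions sorted by FACS into six bins by GFP to DsRed ratio, PSI derived from sequencing read proportions per bin multiplied by bin number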
# SETUP_CONDITIONS: c terminus: a fixed tail appended

Query: Sample `A19R` — what was its protein stability index?
Result: 2.29

Query: Follow-up item: `R13K`
Result: 2.12

Query: Follow-up item: `G3V`
Result: 1.95

Query: Follow-up item: `Y1S`
Result: 4

Query: Follow-up item: `P14F`
Result: 1.49

Query: Follow-up item: `R13W`
Result: 3.13

Query: Follow-up item: `Y7S`
Result: 2.55

Query: Follow-up item: `S11E`
Result: 2.56

Query: Follow-up item: `H12C`
Result: 2.64

Query: Follow-up item: `Y7C`
Result: 2.49

Query: Follow-up item: `P23K`
Result: 1.91

Each recorded value in this set is attributed to the supplement of paper PMC10567573.
